Target: T1, CD3 epsilon homodimer protein (UniProt P07766 23-126)
T1 construct: also called CD3 (CD3 epsilon)
T1 sequence (P07766 23-126): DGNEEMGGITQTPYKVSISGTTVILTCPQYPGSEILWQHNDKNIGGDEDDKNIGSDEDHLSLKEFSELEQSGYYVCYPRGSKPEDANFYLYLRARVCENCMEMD
Assay: SPR, antibody over immobilised CD3e homodimer;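 note: SPR at 25 °C with CD3 epsilon homodimer amine-coupled to a CM4 sensor chip and antibody flowed over as analyte in HBS-EP+ running buffer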
endpoint_label: KD ratio to GLS3000

In the examples that follow, each entry is paired with its recorded KD ratio to GLS3000.
binder	KD ratio to GLS3000
CE115HA000/GLS3000 H27dW (antibody, IgG1, name in Kabat numbering, V domains shown, one-arm IgG1) VH: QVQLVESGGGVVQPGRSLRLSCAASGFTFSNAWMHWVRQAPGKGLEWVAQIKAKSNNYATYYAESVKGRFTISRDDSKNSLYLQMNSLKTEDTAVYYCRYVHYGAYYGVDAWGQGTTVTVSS VL: DIVMTQSPLSLPVTPGEPASISCRSSQSLVWSNRNTYLHWYQQKPGQAPRLLIYKVSNRFSGVPDRFSGSGSGTDFTLKISRVEAEDVGVYYCGQGTQVPYTFGQGTKLEIK	1.86
CE115HA000/GLS3000 S27eN (antibody, IgG1, name in Kabat numbering, V domains shown, one-arm IgG1) VH: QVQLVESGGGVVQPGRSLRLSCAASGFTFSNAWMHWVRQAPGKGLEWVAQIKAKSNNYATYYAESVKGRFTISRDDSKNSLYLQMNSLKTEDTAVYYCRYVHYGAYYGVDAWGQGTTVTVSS VL: DIVMTQSPLSLPVTPGEPASISCRSSQSLVHNNRNTYLHWYQQKPGQAPRLLIYKVSNRFSGVPDRFSGSGSGTDFTLKISRVEAEDVGVYYCGQGTQVPYTFGQGTKLEIK	1.01
CE115HA000/GLS3000 V94I (antibody, IgG1, name in Kabat numbering, V domains shown, one-arm IgG1) VH: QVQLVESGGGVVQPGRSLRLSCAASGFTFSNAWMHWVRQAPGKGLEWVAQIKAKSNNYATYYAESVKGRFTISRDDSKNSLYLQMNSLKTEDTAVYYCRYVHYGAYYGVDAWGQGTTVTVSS VL: DIVMTQSPLSLPVTPGEPASISCRSSQSLVHSNRNTYLHWYQQKPGQAPRLLIYKVSNRFSGVPDRFSGSGSGTDFTLKISRVEAEDVGVYYCGQGTQIPYTFGQGTKLEIK	1.46
CE115HA000/GLS3000 N53H (antibody, IgG1, name in Kabat numbering, V domains shown, one-arm IgG1) VH: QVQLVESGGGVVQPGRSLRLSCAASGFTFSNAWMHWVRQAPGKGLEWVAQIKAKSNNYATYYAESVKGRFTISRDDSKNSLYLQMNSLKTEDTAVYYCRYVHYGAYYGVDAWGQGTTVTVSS VL: DIVMTQSPLSLPVTPGEPASISCRSSQSLVHSNRNTYLHWYQQKPGQAPRLLIYKVSHRFSGVPDRFSGSGSGTDFTLKISRVEAEDVGVYYCGQGTQVPYTFGQGTKLEIK	1.31

Input line: State, in one line, measured KD ratio to GLS3000 of CE115HA000/GLS3000 S27aG (antibody, IgG1, name in Kabat numbering, V domains shown, one-arm IgG1) VH: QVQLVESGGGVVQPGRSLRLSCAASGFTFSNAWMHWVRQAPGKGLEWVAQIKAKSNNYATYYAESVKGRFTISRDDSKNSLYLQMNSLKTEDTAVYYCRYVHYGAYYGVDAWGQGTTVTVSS VL: DIVMTQSPLSLPVTPGEPASISCRSSQGLVHSNRNTYLHWYQQKPGQAPRLLIYKVSNRFSGVPDRFSGSGSGTDFTLKISRVEAEDVGVYYCGQGTQVPYTFGQGTKLEIK
Output line: 0.8
